- SYSTEM_NAME: T1, recombinant human Fc-tagged PSA (Homo sapiens, UniProt P07288)
- T1 construct: prostate-specific antigen (PSA), human; also called prostate-specific antigen; recombinant Fc-tagged PSA
- PROTOCOL: ELISA; enzyme immunoassay: recombinant human Fc-tagged PSA coated on the plate (0.1 M NaHCO3 pH 8.6, overnight at 4 C), blocked with 3% BSA in PBS; 250 ng cotinine-conjugated scFv-C kappa fusion protein in 50 ul, 1 h at 37 C; HRP-conjugated anti-cotinine IgG1 or HRP-conjugated anti-human C kappa antibody, TMB, optical density at 450 nm
- PROTOCOL_CONDITIONS: both partners purified
VALUE_TYPE: binding result

charge-variant artificial H13 cysteine-mutant scFv DCE, scFv-C kappa fusion protein cotinine conjugate (scFv, V domains shown, VL as in m2; VH as in m6 (GenBank KP764767 with cysteine at Kabat H13), the flanking residues of H13 changed from QCP to DCE; also called DEC (as printed once); source: HEK293F, transfected, purified (KappaSelect); reduced with TCEP-HCl, treated with dehydroascorbic acid, conjugated with GMBS-coupled cotinine) VH: AVTLDESGGGLDCEGGALSLVCKASGFTFSSYDMGWVRQAPGKGLEWVAGIDDDGSYPNYGPAVKGRATISRDNGQSTVRLQLNNLRAEDTGTYFCAKGIESDSDGYMTAEEIDAWGHGTEVIVSS VL: ALTQPSSVSANLGGTVKITCSGGYSYYGWYQQKSPGSAPVTVIYESTKRPSNIPSRFSGSTSGSTGTLTITGVQADDAAVYYCGSWDSSSVGIFGAGTTLTVL ... binds
charge-variant artificial H13 cysteine-mutant scFv RCK, scFv-C kappa fusion protein cotinine conjugate (scFv, V domains shown, VL as in m2; VH as in m6 (GenBank KP764767 with cysteine at Kabat H13), the flanking residues of H13 changed from QCP to RCK; source: HEK293F, transfected, purified (KappaSelect); reduced with TCEP-HCl, treated with dehydroascorbic acid, conjugated with GMBS-coupled cotinine) VH: AVTLDESGGGLRCKGGALSLVCKASGFTFSSYDMGWVRQAPGKGLEWVAGIDDDGSYPNYGPAVKGRATISRDNGQSTVRLQLNNLRAEDTGTYFCAKGIESDSDGYMTAEEIDAWGHGTEVIVSS VL: ALTQPSSVSANLGGTVKITCSGGYSYYGWYQQKSPGSAPVTVIYESTKRPSNIPSRFSGSTSGSTGTLTITGVQADDAAVYYCGSWDSSSVGIFGAGTTLTVL ... binds
charge-variant artificial H13 cysteine-mutant scFv ECE, scFv-C kappa fusion protein cotinine conjugate (scFv, V domains shown, VL as in m2; VH as in m6 (GenBank KP764767 with cysteine at Kabat H13), the flanking residues of H13 changed from QCP to ECE; source: HEK293F, transfected, purified (KappaSelect); reduced with TCEP-HCl, treated with dehydroascorbic acid, conjugated with GMBS-coupled cotinine) VH: AVTLDESGGGLECEGGALSLVCKASGFTFSSYDMGWVRQAPGKGLEWVAGIDDDGSYPNYGPAVKGRATISRDNGQSTVRLQLNNLRAEDTGTYFCAKGIESDSDGYMTAEEIDAWGHGTEVIVSS VL: ALTQPSSVSANLGGTVKITCSGGYSYYGWYQQKSPGSAPVTVIYESTKRPSNIPSRFSGSTSGSTGTLTITGVQADDAAVYYCGSWDSSSVGIFGAGTTLTVL ... binds
charge-variant artificial H13 cysteine-mutant scFv ECD, scFv-C kappa fusion protein cotinine conjugate (scFv, V domains shown, VL as in m2; VH as in m6 (GenBank KP764767 with cysteine at Kabat H13), the flanking residues of H13 changed from QCP to ECD; source: HEK293F, transfected, purified (KappaSelect); reduced with TCEP-HCl, treated with dehydroascorbic acid, conjugated with GMBS-coupled cotinine) VH: AVTLDESGGGLECDGGALSLVCKASGFTFSSYDMGWVRQAPGKGLEWVAGIDDDGSYPNYGPAVKGRATISRDNGQSTVRLQLNNLRAEDTGTYFCAKGIESDSDGYMTAEEIDAWGHGTEVIVSS VL: ALTQPSSVSANLGGTVKITCSGGYSYYGWYQQKSPGSAPVTVIYESTKRPSNIPSRFSGSTSGSTGTLTITGVQADDAAVYYCGSWDSSSVGIFGAGTTLTVL ... binds
